The measured values listed here are drawn from paper PMC10786891.

Target: T1, EsCas13d, nuclease-dead (Eubacterium siraeum, UniProt B0MS50, R295A;H300A;R849A;H854A)
T1 sequence: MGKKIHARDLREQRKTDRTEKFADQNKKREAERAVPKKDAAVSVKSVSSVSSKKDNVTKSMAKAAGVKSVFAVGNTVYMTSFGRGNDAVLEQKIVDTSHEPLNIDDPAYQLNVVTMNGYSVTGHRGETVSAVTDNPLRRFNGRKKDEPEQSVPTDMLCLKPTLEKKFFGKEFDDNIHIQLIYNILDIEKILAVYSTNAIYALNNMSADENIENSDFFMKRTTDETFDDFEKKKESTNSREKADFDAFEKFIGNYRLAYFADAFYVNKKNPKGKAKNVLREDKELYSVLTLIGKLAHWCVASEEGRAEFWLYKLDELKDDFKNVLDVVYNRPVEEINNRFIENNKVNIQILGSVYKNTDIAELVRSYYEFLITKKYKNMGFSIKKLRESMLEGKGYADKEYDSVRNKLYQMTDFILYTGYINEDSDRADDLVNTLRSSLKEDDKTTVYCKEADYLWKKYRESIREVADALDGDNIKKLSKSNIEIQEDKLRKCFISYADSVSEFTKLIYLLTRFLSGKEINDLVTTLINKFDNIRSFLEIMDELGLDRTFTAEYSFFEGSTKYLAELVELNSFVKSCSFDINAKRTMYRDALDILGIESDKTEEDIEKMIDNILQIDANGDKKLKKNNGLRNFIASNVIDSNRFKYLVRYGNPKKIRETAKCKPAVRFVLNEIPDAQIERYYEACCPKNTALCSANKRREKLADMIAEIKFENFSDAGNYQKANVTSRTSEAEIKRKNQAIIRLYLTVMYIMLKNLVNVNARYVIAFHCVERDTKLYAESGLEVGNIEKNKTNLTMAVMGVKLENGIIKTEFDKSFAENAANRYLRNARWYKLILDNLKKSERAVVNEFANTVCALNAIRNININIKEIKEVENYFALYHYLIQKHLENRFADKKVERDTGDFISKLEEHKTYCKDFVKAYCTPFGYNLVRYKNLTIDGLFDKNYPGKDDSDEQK
Test: crRNA (strand 1, pre-loaded); Mg2+; 40 mM Tris-HCl pH 7.5, 150 mM NaCl, 6 mM MgCl2, 1 mM DTT, 0.1% Tween-20, 0.2 mg/ml BSA; 25 C; 10 min per concentration, then washed
Conditions: tags: His6-TwinStrep-SUMO cleaved; N-terminal SNAP kept (SNAP-Surface 488); label: 3' end held by stalled T7 RNA polymerase
property.measured: pKd
Answers are plain numbers, as −log10 of the molar value.

Example binders with recorded pKd:
[
  {
    "binder": "target 1 insU 3' of 15,insA 3' of 8 (mixed) RNA 1: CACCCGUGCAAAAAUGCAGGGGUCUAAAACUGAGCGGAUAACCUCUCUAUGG RNA 2: GGGAAUGGAUCCACAUCUACGAAUUCGUACCAUAGAGUAGGUUAUACCGCUCACCGAGAUCGGAAGAGCACACGU",
    "observed.result": 7.77
  },
  {
    "binder": "target 1 insA 3' of 13,insU 3' of 7 (mixed) RNA 1: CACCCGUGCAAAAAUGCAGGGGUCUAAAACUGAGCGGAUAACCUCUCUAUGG RNA 2: GGGAAUGGAUCCACAUCUACGAAUUCGUACCAUAGAGAGAGUUAUCUCGCUCACCGAGAUCGGAAGAGCACACGU",
    "observed.result": 7.95
  },
  {
    "binder": "target 2 MT 5'PFS GUC 3'PFS CUA (mixed) RNA 1: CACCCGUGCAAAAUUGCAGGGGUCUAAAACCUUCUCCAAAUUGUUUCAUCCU RNA 2: GGGAAUGGAUCCACAUCUACGAAUUCGUCAGGAUGAAACAAUUUGGAGAAGCUAAGAUCGGAAGAGCACACGU",
    "observed.result": 7.93
  },
  {
    "binder": "target 2 MT 5'PFS ACA 3'PFS CGC (mixed) RNA 1: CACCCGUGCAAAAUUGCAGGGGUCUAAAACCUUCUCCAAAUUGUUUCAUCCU RNA 2: GGGAAUGGAUCCACAUCUACGAAUUCACAAGGAUGAAACAAUUUGGAGAAGCGCAGAUCGGAAGAGCACACGU",
    "observed.result": 8.31
  },
  {
    "binder": "target 1 MT 5'PFS GAA 3'PFS AGG (mixed) RNA 1: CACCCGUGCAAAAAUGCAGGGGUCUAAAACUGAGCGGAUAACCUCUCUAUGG RNA 2: GGGAAUGGAUCCACAUCUACGAAUUCGAACCAUAGAGAGGUUAUCCGCUCAAGGAGAUCGGAAGAGCACACGU",
    "observed.result": 7.09
  }
]

// input: 3 binders below; output: pKd for each
1. target 3 insU 3' of 1,insG 3' of 1 (mixed) RNA 1: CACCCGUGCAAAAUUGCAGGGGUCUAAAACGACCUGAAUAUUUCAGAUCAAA RNA 2: GGGAAUGGAUCCACAUCUACGAAUUCGUUUUUGAUCUGAAAUAUUCAGGUCUGUGCAGAUCGGAAGAGCACACGU
2. target 1 insC 3' of 17 (mixed) RNA 1: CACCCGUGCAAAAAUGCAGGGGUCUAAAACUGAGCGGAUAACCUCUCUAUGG RNA 2: GGGAAUGGAUCCACAUCUACGAAUUCGUACCAUAGCAGAGGUUAUCCGCUCACCGAGAUCGGAAGAGCACACGU
3. target 1 complement block 2-5 (mixed) RNA 1: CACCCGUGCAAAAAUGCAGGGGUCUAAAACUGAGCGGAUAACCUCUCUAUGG RNA 2: GGGAAUGGAUCCACAUCUACGAAUUCGUACCAUAGAGAGGUUAUCCCGAGACCGAGAUCGGAAGAGCACACGU

### Response
1. 7.69
2. 7.30
3. 7.97
